Cited source for all entries: ChEMBL document CHEMBL1201862

Tested on: RXF 393
Method: NCI tumour cell line growth inhibition, 48 h
Active and inactive are the calls of the source. Rule as the data show it: active = GI50 up to about 1.1 µM and inactive = higher.
Measured metric: GI50

# annotated cases, reported GI50 shown
INSERT INTO assay_data (compound, measured_metric, recorded_measurement) VALUES
  ('CN1CCCN2CCN(C)CCN(CC1)CC2', 'GI50', '> 100 µM (inactive)'),
  ('Cc1ccc(S(=O)(=O)N2CCN3C(=O)c4ccccc4C32c2ccc(F)cc2)cc1 (stereo not drawn)', 'GI50', '65.2 µM (inactive)'),
  ('N=C(N)c1ccc(/N=N/c2c(O)ccc3cc(O)ccc23)cc1', 'GI50', '> 100 µM (inactive)');

Entry CCOc1ccc2ccccc2c1NC1=NCCO1 ; GI50 = 98.6 µM (inactive)

Entry C=C[C@@]1(C)CCC2(O)C(CCC3C2(C)CCC[C@@]3(C)COC(=O)CC(=O)OC)C1 (stereo partly drawn) ; GI50 = 23.7 µM (inactive)

Entry COC(=O)c1c2c(cc3c1CC1(Cc4cc5c(cc4C1)CCC5)C3)CCC2 ; GI50 = > 100 µM (inactive)
